Item-by-item account of IL-2 production, SEB-dependent PBMC stimulation test, 0.4 ug/ml, N = 1
Molecular target: T1, human LAG-3 on cells (HEK293-hLAG-3 stable cell line) (human, UniProt P18627 23-525)
T1 sequence: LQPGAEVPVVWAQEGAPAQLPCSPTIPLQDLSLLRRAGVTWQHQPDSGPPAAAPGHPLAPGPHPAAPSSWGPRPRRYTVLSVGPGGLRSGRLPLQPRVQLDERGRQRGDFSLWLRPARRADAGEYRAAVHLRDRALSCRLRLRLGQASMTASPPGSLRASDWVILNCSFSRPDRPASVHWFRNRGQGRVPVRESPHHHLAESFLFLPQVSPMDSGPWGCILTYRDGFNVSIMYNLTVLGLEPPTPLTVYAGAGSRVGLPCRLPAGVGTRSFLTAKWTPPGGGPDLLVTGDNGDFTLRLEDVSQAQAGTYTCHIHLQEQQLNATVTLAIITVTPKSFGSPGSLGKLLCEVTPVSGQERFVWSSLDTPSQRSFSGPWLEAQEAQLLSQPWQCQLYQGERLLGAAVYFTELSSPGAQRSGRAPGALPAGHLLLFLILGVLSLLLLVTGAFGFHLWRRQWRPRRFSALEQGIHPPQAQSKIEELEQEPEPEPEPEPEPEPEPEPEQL
Assay: cell-based or functional assay
REPORTED_METRIC: IL-2 production, SEB-dependent PBMC stimulation test, 0.4 ug/ml, N = 1 (pg/mL)

BINDER	ENDPOINT_RESULT
409B11E12 mouse-human chimeric antibody (antibody, V domains shown, also called mAb104-409B11E12) VH: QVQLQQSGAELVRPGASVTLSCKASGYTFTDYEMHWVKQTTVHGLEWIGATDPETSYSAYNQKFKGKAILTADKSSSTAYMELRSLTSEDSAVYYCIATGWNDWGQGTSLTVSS VL: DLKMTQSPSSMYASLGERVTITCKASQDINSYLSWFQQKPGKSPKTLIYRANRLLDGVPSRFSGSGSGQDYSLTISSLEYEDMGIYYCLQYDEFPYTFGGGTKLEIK	2820
405B8H3 mouse-human chimeric antibody (antibody, V domains shown, also called mAb103-405B8H3) VH: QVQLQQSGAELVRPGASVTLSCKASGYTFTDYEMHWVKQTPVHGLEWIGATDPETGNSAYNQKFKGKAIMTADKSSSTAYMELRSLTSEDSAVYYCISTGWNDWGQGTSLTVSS VL: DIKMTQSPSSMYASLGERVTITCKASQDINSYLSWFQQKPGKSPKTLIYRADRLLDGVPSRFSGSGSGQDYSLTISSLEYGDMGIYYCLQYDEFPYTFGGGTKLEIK	2790
105F1E10 mouse-human chimeric antibody (antibody, V domains shown, also called mAb009-105F1E10) VH: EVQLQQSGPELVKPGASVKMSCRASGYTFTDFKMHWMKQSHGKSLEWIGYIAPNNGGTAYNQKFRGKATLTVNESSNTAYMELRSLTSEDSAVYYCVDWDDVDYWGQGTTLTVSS VL: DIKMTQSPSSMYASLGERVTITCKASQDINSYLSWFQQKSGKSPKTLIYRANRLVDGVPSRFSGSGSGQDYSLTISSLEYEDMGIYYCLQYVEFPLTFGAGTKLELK	2550
556F6B8 mouse-human chimeric antibody (antibody, V domains shown, also called mAb123-556F6B8; 556F8B8) VH: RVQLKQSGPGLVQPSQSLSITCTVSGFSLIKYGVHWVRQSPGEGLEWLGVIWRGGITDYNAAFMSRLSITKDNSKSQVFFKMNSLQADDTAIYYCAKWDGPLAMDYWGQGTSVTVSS VL: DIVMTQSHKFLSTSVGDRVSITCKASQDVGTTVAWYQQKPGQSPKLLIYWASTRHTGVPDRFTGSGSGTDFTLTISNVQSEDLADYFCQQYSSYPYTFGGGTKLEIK	2570
409D4E10 mouse-human chimeric antibody (antibody, V domains shown, also called mAb112-409D4E10) VH: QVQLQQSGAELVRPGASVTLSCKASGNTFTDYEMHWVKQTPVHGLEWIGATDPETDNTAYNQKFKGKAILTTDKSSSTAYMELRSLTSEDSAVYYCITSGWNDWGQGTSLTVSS VL: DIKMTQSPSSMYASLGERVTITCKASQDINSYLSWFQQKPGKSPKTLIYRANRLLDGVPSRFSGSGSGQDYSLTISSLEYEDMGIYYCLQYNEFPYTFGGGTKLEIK	2170
